- System name: Thyroxine-binding globulin (Homo sapiens)
- Sequence (whole entry): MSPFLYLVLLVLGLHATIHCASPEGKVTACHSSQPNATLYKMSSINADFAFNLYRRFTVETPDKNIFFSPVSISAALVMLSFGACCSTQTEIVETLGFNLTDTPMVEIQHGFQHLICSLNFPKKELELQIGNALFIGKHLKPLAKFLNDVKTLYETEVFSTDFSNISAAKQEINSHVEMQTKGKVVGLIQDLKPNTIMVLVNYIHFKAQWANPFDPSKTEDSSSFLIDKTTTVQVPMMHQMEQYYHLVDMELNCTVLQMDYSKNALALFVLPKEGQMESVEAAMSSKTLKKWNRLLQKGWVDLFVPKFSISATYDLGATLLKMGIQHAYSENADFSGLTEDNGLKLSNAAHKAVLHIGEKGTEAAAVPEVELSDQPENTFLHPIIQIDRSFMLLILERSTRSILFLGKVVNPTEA
- Experiment notes: Percentage thyroxine-binding globulin (TBG) binding activity of compound was determined in human serum
- Assay type: cell-free
Metric: Activity (%)

Some entries whose results are on file:
{"Compound": "N[C@@H](Cc1cc(I)c(Oc2ccc(O)c(I)c2)c(I)c1)C(=O)O [LIOTHYRONINE]", "U": "%", "Activity": 9}
{"Compound": "Cc1cc(Oc2c(C)cc(CC(N)C(=O)O)cc2C)cc(C)c1O (centres undefined)", "U": "%", "Activity": 0}

P = Cc1cc(CC(N)C(=O)O)cc(C)c1Oc1ccc(O)c(C(C)C)c1 (centres undefined)
Q = Cc1cc(Oc2c(C)cc(CC(N)C(=O)O)cc2C)ccc1O (centres undefined)
Which is greater in Activity, the first item P or the second item Q ? Selection: enter the item's label.
P
(P: 0.05%, Q: 0%)

====

- Species: Rattus norvegicus
- Experiment notes: In vitro binding affinity of compound to the rat Hepatic nuclear protein receptors was determined
Metric: Activity (%)

{"Molecule": "Cc1cc(Oc2c(C)cc(CC(N)C(=O)O)cc2C)ccc1O (centres undefined)", "Activity (%)": 0.1}

1 = N[C@@H](Cc1cc(I)c(Oc2cc(I)c(O)c(I)c2)c(I)c1)C(=O)O
2 = Cc1cc(CC(N)C(=O)O)cc(C)c1Oc1ccc(O)c(C(C)C)c1 (centres undefined)
3 = Cc1cc(Oc2c(C)cc(CC(N)C(=O)O)cc2C)cc(C)c1O (centres undefined)
Put the molecules in ascending order of Activity. Would you mind listing the labels in the order asked for?
3, 2, 1
